# System: MS2 coat protein
# assay.remarks: apparent KD of MS2 coat protein; designed switch direction (-1 OFF switch, 1 ON switch): -1; higher = weaker reporter binding
# particulars: input ligand: none
Label 1.0 when apparent KD of MS2 coat protein is at or above 20 nM; otherwise label 0.0.

biopolymer.sequence	assigned.class
AAUAAUGAGUAGGAUAUCACUAGCGAUAGCUAGUGAGAAGGGCUCACAUGAGGAUCACCCAUGUGUUCCAAUAA [Mod4 Ex6/6-A4 by Brourd] (Eterna round: R97, puzzle: Exclusion 6)	1.0

Quick check: does GGAGAGGUAGGAUAUGGAGGUUAAAACAUGAGGAUCACCCAUGUUAAACCUCAUGACCGACUAGAAGGACCAGUCC [AK-MS2ROC-r4-exclusion5-8] (Eterna round: R97, puzzle: Exclusion 5) have apparent KD of MS2 coat protein greater than or equal to 20 nM?
0.0

Is apparent KD of MS2 coat protein at least 20 nM? Consider AUUUGCACGCUGCGGUCCUACAUGAGGAUCACCCAUGUGGUCUGGUGGCGUGGGUCGCCGGACUUGGCUCGUCUUGG [salish99_S_TOV1_R5_034] (Eterna round: R97, puzzle: Sensor, turn-off variant 1)
0.0

Decide: is the reported value of apparent KD of MS2 coat protein for CCAUGAUAAGGAUAUUGAAGGUUCGACAUGAGGAUCACCCAUGUUAUGUUGGAAAAGGGACAAGAAGGUAUGAAUU [salish99_ex5_r4_220] (Eterna round: R97, puzzle: Exclusion 5) equal to or greater than 20 nM?
1.0

Data provenance: the supplement of paper PMC9170038
